target.desc: T1, mucin domain-deleted Sudan GP (GPdMuc) (Sudan virus (SUDV), UniProt Q7T9D9 33-632)
T1 construct: also called Sudan GPdMuc; GP(S)dMuc
experiment.summary: BLI competition on Sudan GPdMuc (upper table); competitor 16F6
value.type: % inhibition of binding (%)

[[record]]
binder = "antibody 203S (antibody, V domains shown) VH: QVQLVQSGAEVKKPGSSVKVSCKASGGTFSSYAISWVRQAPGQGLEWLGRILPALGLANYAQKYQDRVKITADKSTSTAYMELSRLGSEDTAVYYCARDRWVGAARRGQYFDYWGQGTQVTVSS VL: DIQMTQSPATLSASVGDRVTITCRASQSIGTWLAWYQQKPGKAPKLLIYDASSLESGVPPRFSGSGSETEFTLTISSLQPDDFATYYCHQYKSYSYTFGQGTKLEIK"
unit_abbrev = "%"
value_reported = 10.8

